pKi: −log10 of the molar value. Counter-ions that a name gives are not always drawn.
Endpoint: pKi. System: human Adenosine A2a receptor (Homo sapiens, UniProt P29274). Items follow.
Sequence (P29274 whole entry): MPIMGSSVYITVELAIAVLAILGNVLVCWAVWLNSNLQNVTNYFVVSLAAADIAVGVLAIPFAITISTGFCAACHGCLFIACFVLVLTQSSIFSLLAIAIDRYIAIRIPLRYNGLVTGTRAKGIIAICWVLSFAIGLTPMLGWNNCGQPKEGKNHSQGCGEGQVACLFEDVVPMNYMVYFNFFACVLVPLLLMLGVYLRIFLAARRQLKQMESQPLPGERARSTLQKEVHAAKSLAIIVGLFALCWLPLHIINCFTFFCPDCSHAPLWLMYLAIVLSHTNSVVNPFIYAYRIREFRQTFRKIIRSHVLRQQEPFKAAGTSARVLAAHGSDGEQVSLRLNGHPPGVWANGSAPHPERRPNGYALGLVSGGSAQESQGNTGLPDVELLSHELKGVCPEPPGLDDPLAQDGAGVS
Property: pKi

compound="Cc1cc(-c2c(-c3cccc(C#N)c3)nn3ccc(O[C@@H]4CCNC4)nc23)cc(Cl)n1 [Example 18, formate]" reading=8.01
compound=Cc1cc(-c2c(-c3cccc(C#N)c3)nn3ccc(N/C(N)=N\C#N)nc23)cc(Cl)n1 reading=7.76
compound=Cc1cc(-c2c(-c3cccc(C#N)c3)nn3ccc(C(=O)NC45CCC(N)(CC4)C5)nc23)cc(Cl)n1 reading=8.43
compound="N#Cc1c(-c2ccco2)nn2ccc(NC[C@H]3CCCN3)nc12 [Example 80, hydrochloride]" reading=6.81
